- Test system: K86415-001-R-J1-PDC complex spheroids, viability;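 note: spheroids exposed to agents for seven days before readout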
- Assay Overview: Anticancer human tumor K86415-001-R-J1-PDC patient-derived lung adenocarcinoma cell line growth inhibition [RAS]; active = viability on the fitted dose curve at most 10% of control; inactive = the rest
- Condition Description: second compound 0.003 µM; first compound 0.3 µM
The categories you may choose from are 1 (active), -1 (inactive)

[in] Could you check what this test reported for CC1(C)CCC(Nc2ncc(C(F)(F)F)c(-c3c[nH]c4c(P(C)(C)=O)c(C#N)ccc34)n2)CN1 (centres undefined) + CCn1c(-c2cc(N3CCN(C)CC3)cnc2C(C)OC)c2c3cc(ccc31)-c1csc(n1)CC(NC(=O)C1CC1C)C(=O)N1CCCC(N1)C(=O)OCC(C)(C)C2 ?
[out] -1

[in] Could you check what this test reported for CCc1c2c(nc3ccc(O)cc13)-c1cc3c(c(=O)n1C2)COC(=O)[C@]3(O)CC + CCn1c(-c2cccnc2C(C)OC)c2c3cc(ccc31)N1CCOC(CC(NC(=O)C(C(C)C)N(C)C(=O)C3(F)CCN(C(=O)C#CC(C)(C)N(C)C)CC3)C(=O)N3CCCC(N3)C(=O)OCC(C)(C)C2)C1 ?
[out] 1

[in] Could you check what this test reported for CCc1c2c(nc3ccc(O)cc13)-c1cc3c(c(=O)n1C2)COC(=O)[C@]3(O)CC + CCn1c(-c2cc(N3CCN(C)CC3)cnc2C(C)OC)c2c3cc(ccc31)-c1csc(n1)CC(NC(=O)C1CC1C)C(=O)N1CCCC(N1)C(=O)OCC(C)(C)C2 ?
[out] 1

[in] Could you check what this test reported for CC1(C)CCC(Nc2ncc(C(F)(F)F)c(-c3c[nH]c4c(P(C)(C)=O)c(C#N)ccc34)n2)CN1 (centres undefined) + CCn1c(-c2cccnc2C(C)OC)c2c3cc(ccc31)N1CCOC(CC(NC(=O)C(C(C)C)N(C)C(=O)C3(F)CCN(C(=O)C#CC(C)(C)N(C)C)CC3)C(=O)N3CCCC(N3)C(=O)OCC(C)(C)C2)C1 ?
[out] -1
